B1: TPR t1 (parent)
chain: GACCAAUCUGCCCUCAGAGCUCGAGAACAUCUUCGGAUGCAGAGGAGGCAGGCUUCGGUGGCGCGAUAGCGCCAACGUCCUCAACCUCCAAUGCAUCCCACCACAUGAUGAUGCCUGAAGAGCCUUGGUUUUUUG

variants of: B1; test: polymerase ribozyme fitness, log enrichment relative to wild type (log ratio); higher = more active; in vitro selection for triplet polymerase activity
polymerase ribozyme fitness (log ratio) vs -2: at or above is Fulfilled, below is Not fulfilled.

1. A6C C70U C73G    Not fulfilled
2. G10U U55G A111C    Fulfilled
3. C12G G19C G23C U59C G60U    Not fulfilled
4. U21C C28U C72U    Fulfilled
5. C13U G120A    Fulfilled
6. C11U C114G    Not fulfilled
7. A43C G61C U112A    Not fulfilled
8. A24C G48C U87A C97U C124A    Not fulfilled
9. C8U G58A G93U G117U G128C    Not fulfilled
10. C31A G45U C115G    Not fulfilled
11. C56G G71C    Not fulfilled
12. G47C C102U G110U U133A    Not fulfilled
13. C4G A5G C11U C73G C89A G113U C114U G122U U129G    Not fulfilled
14. A66U A68G    Not fulfilled
15. C11A A18U G127A    Not fulfilled
16. C13U C73U C124U G127A    Fulfilled
17. A95G C102U    Fulfilled
18. U32C C85G    Not fulfilled
19. A29G A90C U92C    Not fulfilled
20. C12A C76A C82A U92G    Not fulfilled
21. A66U U78C C124U    Fulfilled
22. U14A A84C G122A    Fulfilled
23. G71U A74U A95U U112G    Not fulfilled
24. G39U U92A G110U U132A    Not fulfilled
25. U96G C102G C124U U125A    Not fulfilled
26. G61A C104U    Fulfilled
27. G128C U130C    Fulfilled
28. A27C C31U A46C A84C C89A G110U U112A C123U U125A    Not fulfilled
29. G36U G63A C97U    Fulfilled
30. C62U U78G C86U    Fulfilled
31. C22A G61U    Not fulfilled
32. C15A A29G    Not fulfilled
33. A50G C79A U96C    Not fulfilled
34. C13U G51U G61A C88U U106A    Not fulfilled
35. A18U G71A    Not fulfilled
36. C72A A75C U87G C102A U116A C124U U130A    Not fulfilled
37. A37U G69U U125C    Not fulfilled
38. A18U G63A G110U    Not fulfilled
39. C13U U59A G60A C80U A95C G120U    Fulfilled
40. G45A G52C C72A C123G    Fulfilled
41. A50U U112A C124U G128C    Not fulfilled
42. A2G C13U A91C G122A    Fulfilled
43. C11G A50U G93U G113U    Not fulfilled
44. C73A G135C    Fulfilled
45. C12A G120A U126G    Fulfilled
46. C13U G61C G93U U132C    Not fulfilled
47. U32C C64U G93A C114G U134G    Not fulfilled
48. A66U U125A    Not fulfilled
49. U7C U59A A83G U96C    Fulfilled
50. G52U U112A U126G    Fulfilled
51. A50G C88A C104U G113U U129C    Not fulfilled
52. C40G C64U U81A    Not fulfilled
53. C56U G113A    Fulfilled
54. C12G A43G    Fulfilled
55. U9G C56G G61A    Not fulfilled
56. G63C G113U    Not fulfilled
57. G113C U133A    Not fulfilled
58. G23A C72G    Not fulfilled
59. G39U C40A A43G C56G C104U U130C    Not fulfilled
60. C12U C20U A43U G45A C56G G113A    Fulfilled
61. C3G U9C C13A C70G C89A U96C C101A G117C    Not fulfilled
62. U9C C56A A95C U116A    Not fulfilled
63. A2U C11U G45A U81C    Not fulfilled
64. C62A A95U A121C    Fulfilled
65. U7C A74G G110A A118U    Fulfilled
66. G61U C104U    Fulfilled
67. A103U U106G    Not fulfilled
68. G51A C86A    Not fulfilled
69. G48A U59A C72G G120U G135A    Not fulfilled
70. A41C G69U C82U A105U C123A    Fulfilled
71. A66C C70A    Not fulfilled
